# STUDY TARGET: HuCD100 (cell surface) (human, UniProt Q92854)
# Sequence (Q92854 22-734): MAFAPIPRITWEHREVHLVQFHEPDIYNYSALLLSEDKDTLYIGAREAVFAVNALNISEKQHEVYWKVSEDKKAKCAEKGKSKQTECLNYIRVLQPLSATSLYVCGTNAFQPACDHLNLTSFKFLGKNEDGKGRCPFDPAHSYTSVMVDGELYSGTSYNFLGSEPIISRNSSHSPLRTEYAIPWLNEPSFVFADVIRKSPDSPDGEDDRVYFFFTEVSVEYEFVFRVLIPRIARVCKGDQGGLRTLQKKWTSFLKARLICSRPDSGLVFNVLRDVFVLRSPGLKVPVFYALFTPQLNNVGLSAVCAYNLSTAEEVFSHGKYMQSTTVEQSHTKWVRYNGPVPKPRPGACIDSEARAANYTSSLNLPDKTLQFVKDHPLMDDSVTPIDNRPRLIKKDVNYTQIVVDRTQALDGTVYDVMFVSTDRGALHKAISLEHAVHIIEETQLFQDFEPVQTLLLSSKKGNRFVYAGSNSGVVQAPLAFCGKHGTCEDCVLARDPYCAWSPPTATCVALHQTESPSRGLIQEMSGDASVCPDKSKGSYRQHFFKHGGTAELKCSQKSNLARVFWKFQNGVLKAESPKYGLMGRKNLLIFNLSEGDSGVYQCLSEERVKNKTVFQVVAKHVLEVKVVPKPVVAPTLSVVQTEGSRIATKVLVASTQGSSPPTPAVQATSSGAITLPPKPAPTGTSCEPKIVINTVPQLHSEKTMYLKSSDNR
# ASSAY COMMENT: FACS, HEK293
MEASURE NAME: EC50 (µg/mL)
Express your answer in µg/mL, writing the number without its unit.

// below: answered binders
1) H21 (antibody, V domains shown) VH: EVQLVQSGGGLVQPGRSLRLSCAASGFTFDDYAMHWVRQAPGKGLEWVSGISWNSGSIGYADSVKGRFTISRDNAKNSLYLQMNSLRAEDTALYYCAKDIGGSYFDYYYYGMDVWGQGTLVTVSS VL: EIVLTQSPATLSLSPGERATLSCRTSHNVNTYIAWYQQKPGQAPRLLFYDSSTRLPDTPARFSGSGSGTDFTLTISSLEPEDFAVYYCQQRTSWPLTFGGGTKVEIK: 0.0374
2) C-B71 (antibody, V domains shown) VH: QVQLQESGPGLVKPSQTLSLTCTVSGGSISSGGYYWSWIRQHPGKGLEWIGYIYYSGSTYYNPSLKSRVTISVDTSKNQFSLKLSSVTAADTAVYYCAREGVAAAGIDYWGQGTPVTVSS VL: NIQLTQSPSSVSASVGDRVTITCRASQGISSWLAWYQQKPGKAPKLLISTASSVQSGVPTRFSASGSGTDFTLTISSLQPEDFATYYCQQGYRTPWTFGQGTKVEIK: 0.0879

Next binder, EC50 to be filled in.
State, in one line, measured EC50 of B13 (antibody, V domains shown) VH: QVQLQQWGAGLLKPSETLSLTCAISSGSFSGYYWTWIRQPPGKGLEWIGETNHNGFTTYNTSLKSRITISIDASKNQFYLNLSSVTAADTATYFCARGPAYYADALDGFDIWGQGTMVTVSS VL: QSVLTQPPSVSVSPGQTASITCSGDKLGDKYVSWYQQKPGQSPVLVIYQDNKRPSGIPERFSGSNSGNTATLTISGTQAMDEADYYCQAWDSSTKAYVFGAGTKVTVL
0.0346
